As shown below, each of these molecules has a reported melting point value.
Structures can show the parent of a compound that is named as a salt.
Assay Metric: melting point

[[record]]
molecule = "COc1cc2[nH]c(N(C)Cc3cccc(N4CCOC4=O)c3)nc(=O)c2c(C)c1OC [Example 254]"
reported_result = "254.8 to 257.1 °C"

[[record]]
molecule = "COc1cc2[nH]c(N(C)Cc3ccc(CN(C)CCC(F)(F)F)cc3)nc(=O)c2c(OC)c1OC [Example 1]"
reported_result = "97.8 to 101.9 °C"

[[record]]
molecule = "COc1cc2[nH]c(N(C)Cc3cccc(CN4CCC(O)CC4)c3)nc(=O)c2c(C)c1OC [Example 40]"
reported_result = "159.2 to 159.6 °C"

[[record]]
molecule = "COc1cc2[nH]c(N(C)Cc3cccc(C(C)N(C)S(C)(=O)=O)c3)nc(=O)c2c(C)c1OC (stereo not shown) [Example 26]"
reported_result = "130 to 133.8 °C"

[[record]]
molecule = "CNC(C)c1cccc(CN(C)c2nc(=O)c3c(OC)c(OC)c(OC)cc3[nH]2)c1 (stereo not shown) [Example 63]"
reported_result = "131.8 to 134.4 °C"

[[record]]
molecule = "COc1cc2[nH]c(N(C)Cc3cccc(S(C)(=O)=O)c3)nc(=O)c2c(C)c1OC [Example 128]"
reported_result = "269.5 to 271.5 °C"

[[record]]
molecule = "COc1cc2[nH]c(N(C)Cc3cccc(CN4CCC(O)C4)c3)nc(=O)c2c(C)c1OC (stereo not shown) [Example 49]"
reported_result = "148 to 149.8 °C"

[[record]]
molecule = "COCCNS(=O)(=O)c1cccc(CN(C)c2nc(=O)c3c(C)c(OC)c(OC)cc3[nH]2)c1 [Example 131]"
reported_result = "163 to 164.9 °C"

[[record]]
molecule = "COc1cc2[nH]c(N(C)Cc3cccc(N=C(C(C)C)N(C)C)c3)nc(=O)c2c(OC)c1OC [Example G-32]"
reported_result = "148 to 150 °C"

[[record]]
molecule = "COc1cc2[nH]c(N(C)Cc3cccc(O)c3)nc(=O)c2c(OC)c1OC [Example 155]"
reported_result = "212.3 to 215.1 °C"

[[record]]
molecule = "CNc1cccc(CN(C)c2nc(=O)c3c(C)c(OC)c(OC)cc3[nH]2)c1 [Example 102]"
reported_result = "195.9 to 197.9 °C"

[[record]]
molecule = "CNCc1cccc(CN(C)c2nc(=O)c3c(OC)c(OC)c(OC)cc3[nH]2)c1 [Example 111]"
reported_result = "124.9 to 127.6 °C"

[[record]]
molecule = "COc1cc2[nH]c(N(C)Cc3cccc(C4=NCCN4CCO)c3)nc(=O)c2c(OC)c1OC (as salt: TFA) [Example 245]"
reported_result = "106.1 to 116.6 °C"


* * *

Assay Metric: melting point

[[record]]
compound = "COc1cc2[nH]c(N(C)Cc3cccc(C(C)N(C)C)c3)nc(=O)c2c(C)c1OC (stereo not shown) [Example 61]"
reported_result = "137 to 140.1 °C"

[[record]]
compound = "COC(=O)N(C)c1cccc(CN(C)c2nc(=O)c3c(C)c(OC)c(OC)cc3[nH]2)c1 [Example 178]"
reported_result = "191.9 to 194.1 °C"

[[record]]
compound = "COc1cc2[nH]c(N(C)Cc3cccc(CN4CCC4)c3)nc(=O)c2c(OC)c1OC [Example 47]"
reported_result = "131.3 to 133.1 °C"

[[record]]
compound = "COc1cc2[nH]c(N(C)Cc3cccc(-c4nccn4C)c3)nc(=O)c2c(C)c1OC [Example 249]"
reported_result = "179 to 182.1 °C"

